TARGET ENTITY: AgRvs167
ASSAY NOTES: SPOT peptide array binding signal intensity (averaged, normalized) (arbitrary units (background-subtracted, floor 0; scale differs between SH3 domains)); higher = stronger binding of the SH3 domain to the peptide
RESULT TYPE: SPOT peptide array binding signal intensity
The answer should be written as a number, with no unit following it.

Q: Complete the entry with SPOT peptide array binding signal intensity for DDEDVPPQLPTRTKS
Result: 53.2

Q: Recall and state the measured SPOT peptide array binding signal intensity for SSSSTPPTLPPRRIE .
Result: 2660

Q: Item LLGRKRPVMERVVDI : provide SPOT peptide array binding signal intensity
Result: 3.67

Q: Read the entry YRRKSIPFAPHQITA and write its reported SPOT peptide array binding signal intensity.
Result: 3.67

Q: Read off the recorded SPOT peptide array binding signal intensity for RRGPAPPPPPRASRP
Result: 339

Q: Consider the binder KDKKTKPTPPPKPSH and give its recorded SPOT peptide array binding signal intensity.
Result: 1.5

Q: Using the record for PKMLPIPSKPTLFDL , state its measured SPOT peptide array binding signal intensity.
Result: 3.33

Q: Given the binder QHQQRQPKRPKRYSL , write its reported SPOT peptide array binding signal intensity.
Result: 6

Q: Tell me measured SPOT peptide array binding signal intensity for ALFRLSFFFPLDPAY please.
Result: 40.7
